All values here come from patent US20170342126A1.

Molecular target: T1, HLA-DR DRB4*0101 (human)
T1 chain 1: not shown
T1 chain 2: not shown
Assay: radioligand inhibition, purified HLA-DR
Settings: remark: other sources report otherwise
value kind: IC50
Express your answer as a number followed by its unit.

Prompt: // IC50 lookup, key: GYVIGTQQATPGPAY [9019.0110]
Completion: 6.3 nM
